Tested on: P23H rhodopsin
Assay: Non-radioactive pulse-chase assay in NIH3T3 (RHO^P23H/GFP) cells
Assay type: cell-based
Settings: 10 μM, 24 h of chase, vs DMSO
Result Type: Rate of Rho^P23H degradation (Pulse-chase)

CC(=O)OC(CC(=O)[O-])C[N+](C)(C)C (stereo not drawn)	Up
O=C(NC1CCNCC1)c1n[nH]cc1NC(=O)c1c(Cl)cccc1Cl	No Change
O=C(O)C1=CC=CC(O)C1O (stereo not drawn)	No Change
NCC(=O)COP(=O)(O)O	Up
CC(O)CN (stereo not drawn)	No Change

Exam item: Assign Rate of Rho^P23H degradation (Pulse-chase) to the following record: CC(=O)OC(CC(=O)O)C[N+](C)(C)C (stereo not drawn)
Marked response: Up

Exam item: Report Rate of Rho^P23H degradation (Pulse-chase) for `CN(Cc1cnc2nc(N)nc(N)c2n1)c1ccc(C(=O)N[C@@H](CCC(=O)O)C(=O)O)cc1`
Marked response: Up

Exam item: Query Rate of Rho^P23H degradation (Pulse-chase) for CCC(C)(O)C(O)C(=O)O (stereo not drawn)
Marked response: No Change

Exam item: // fetch Rate of Rho^P23H degradation (Pulse-chase) given entry `CCn1cnc2c(N)ncnc21`
Marked response: Up

---

Test system: P23H mutant mouse rhodopsin fused with Renilla luciferase (Rluc)
Test: Rluc (luciferase) reporter assay in Hek293 (RHO^P23H-Rluc) cells
Assay type: cell-based
Settings: 24 h; DMSO 0%, Evans Blue −100% controls
// boundary case: Efficacy, Rluc assay Hek293 (RHO^P23H − Rluc) equal to -70% maps to label 0; strictly smaller maps to label 1

Exam item: Threshold test, Efficacy, Rluc assay Hek293 (RHO^P23H − Rluc) < -70%: CCC(C)(O)C(O)C(=O)O (stereo not drawn)
Marked response: label 1

Exam item: Hi there! Is Efficacy, Rluc assay Hek293 (RHO^P23H − Rluc) for CC(=O)OC(CC(=O)O)C[N+](C)(C)C (stereo not drawn) below -70%, do you know?
Marked response: label 1

Exam item: In the record for `CN(Cc1cnc2nc(N)nc(N)c2n1)c1ccc(C(=O)N[C@@H](CCC(=O)O)C(=O)O)cc1` , is Efficacy, Rluc assay Hek293 (RHO^P23H − Rluc) less than -70%?
Marked response: label 0

Exam item: Is it true that Efficacy, Rluc assay Hek293 (RHO^P23H − Rluc) reported for `CCn1cnc2c(N)ncnc21` is less than -70%?
Marked response: label 1

Exam item: Could you please tell me whether Efficacy, Rluc assay Hek293 (RHO^P23H − Rluc) recorded for `O=C(NC1CCNCC1)c1n[nH]cc1NC(=O)c1c(Cl)cccc1Cl` is less than -70%?
Marked response: label 0

Exam item: Given the entry `NCC(=O)COP(=O)(O)O` , would its reported Efficacy, Rluc assay Hek293 (RHO^P23H − Rluc) be below -70%?
Marked response: label 1

Exam item: Report whether reported Efficacy, Rluc assay Hek293 (RHO^P23H − Rluc) is lower than -70% (strictly) for O=C(O)C1=CC=CC(O)C1O (stereo not drawn)
Marked response: label 0

---

Tested on: WT mouse rhodopsin fused with Renilla luciferase (Rluc)
Experiment: Rluc reporter counter screen in Hek293 (RHO^WT-Rluc) cells
Format: cell-based
Conditions: 24 h; DMSO 0%, Evans Blue −100% controls
Result Type: Efficacy, Rluc assay Hek293 (RHO^WT − Rluc)
The answer should read as a number with its unit following.

Exam item: GET Efficacy, Rluc assay Hek293 (RHO^WT − Rluc) where system = WT mouse rhodopsin fused with Renilla luciferase (Rluc) and item = O=C(O)C1=CC=CC(O)C1O (centres unmarked)
Marked response: −37.7%

Exam item: Give reported Efficacy, Rluc assay Hek293 (RHO^WT − Rluc) for `CCn1cnc2c(N)ncnc21` (WT mouse rhodopsin fused with Renilla luciferase (Rluc))
Marked response: −51.7%

Exam item: State Efficacy, Rluc assay Hek293 (RHO^WT − Rluc) (WT mouse rhodopsin fused with Renilla luciferase (Rluc)) of CC(=O)OC(CC(=O)O)C[N+](C)(C)C (centres unmarked) .
Marked response: −62.0%

Exam item: Report the value of Efficacy, Rluc assay Hek293 (RHO^WT − Rluc) obtained on WT mouse rhodopsin fused with Renilla luciferase (Rluc) for CCC(C)(O)C(O)C(=O)O (centres unmarked) .
Marked response: −52.7%

Exam item: # lookup: WT mouse rhodopsin fused with Renilla luciferase (Rluc) Efficacy, Rluc assay Hek293 (RHO^WT − Rluc), key = CC(=O)OC(CC(=O)[O-])C[N+](C)(C)C (centres unmarked)
Marked response: −44.3%

Exam item: Recall the reported Efficacy, Rluc assay Hek293 (RHO^WT − Rluc) of `O=C(NC1CCNCC1)c1n[nH]cc1NC(=O)c1c(Cl)cccc1Cl` on WT mouse rhodopsin fused with Renilla luciferase (Rluc) and write it down.
Marked response: −42.9%

Exam item: Tell me its Efficacy, Rluc assay Hek293 (RHO^WT − Rluc) on WT mouse rhodopsin fused with Renilla luciferase (Rluc): `NCC(=O)COP(=O)(O)O`
Marked response: −57.9%

Exam item: // output Efficacy, Rluc assay Hek293 (RHO^WT − Rluc); input CC(O)CN (centres unmarked) ; system WT mouse rhodopsin fused with Renilla luciferase (Rluc)
Marked response: −45.5%
